target desc: T1, recombinant human soluble gpNMB (recombinant human gpNMB-FLAG-His) (human, UniProt Q14956 23-498)
T1 sequence: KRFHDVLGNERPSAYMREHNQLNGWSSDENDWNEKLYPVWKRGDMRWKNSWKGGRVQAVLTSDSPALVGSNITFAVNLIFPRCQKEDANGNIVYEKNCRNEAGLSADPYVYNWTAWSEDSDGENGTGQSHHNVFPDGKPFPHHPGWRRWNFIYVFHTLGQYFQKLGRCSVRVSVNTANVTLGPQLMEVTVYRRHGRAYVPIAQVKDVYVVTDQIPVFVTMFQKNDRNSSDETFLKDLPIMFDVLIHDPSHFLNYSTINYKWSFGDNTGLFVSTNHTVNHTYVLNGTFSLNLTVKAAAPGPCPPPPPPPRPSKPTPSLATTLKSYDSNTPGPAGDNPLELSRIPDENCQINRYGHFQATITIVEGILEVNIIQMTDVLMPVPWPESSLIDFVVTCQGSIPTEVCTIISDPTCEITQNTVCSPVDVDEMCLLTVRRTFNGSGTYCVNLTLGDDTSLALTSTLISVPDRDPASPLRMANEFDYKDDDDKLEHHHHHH
test summary: antigen ELISA, vs hGPN18-2_H2L3
readout name: Relative binding activity

{"binder": "hGPN18-2_H2L3 VH S30A (antibody, V domains shown) VH: QVQLVQSGPGLVQPTQTLTLTCSFSGFSLATSVMGVGWIRQPSGKGLEWLADIWWDDDKDYNPSLKSRLTISKDTSKNQVVLTMTNMDTVDTATYYCARTYYSNYEYYGMDYWGQGTLVTVSS VL: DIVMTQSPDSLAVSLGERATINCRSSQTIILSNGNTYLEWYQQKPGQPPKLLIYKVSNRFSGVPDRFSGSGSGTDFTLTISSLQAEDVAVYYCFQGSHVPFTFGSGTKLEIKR", "meas value": 0.97}
{"binder": "hGPN18-2_H2L3 VH D57A (antibody, V domains shown) VH: QVQLVQSGPGLVQPTQTLTLTCSFSGFSLSTSVMGVGWIRQPSGKGLEWLADIWWDADKDYNPSLKSRLTISKDTSKNQVVLTMTNMDTVDTATYYCARTYYSNYEYYGMDYWGQGTLVTVSS VL: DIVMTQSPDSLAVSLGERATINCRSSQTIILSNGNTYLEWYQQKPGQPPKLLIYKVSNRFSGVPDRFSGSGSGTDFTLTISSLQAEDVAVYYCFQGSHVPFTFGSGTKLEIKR", "meas value": 0.86}
{"binder": "hGPN18-2_H2L3 VH W54A (antibody, V domains shown) VH: QVQLVQSGPGLVQPTQTLTLTCSFSGFSLSTSVMGVGWIRQPSGKGLEWLADIAWDDDKDYNPSLKSRLTISKDTSKNQVVLTMTNMDTVDTATYYCARTYYSNYEYYGMDYWGQGTLVTVSS VL: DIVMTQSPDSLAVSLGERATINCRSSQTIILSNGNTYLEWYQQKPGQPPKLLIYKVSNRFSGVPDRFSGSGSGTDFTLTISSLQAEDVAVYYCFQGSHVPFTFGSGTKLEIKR", "meas value": 0.2}
